Assay: wn = mass fraction of the nth substance listed
Details: 273.15 K; 101 kPa; Liquid; controlled-strain rheometer (ARES-RFS, TA Instruments); w1 = 0.1
± gives the expanded uncertainty stated by the source.
quantityName: viscosity
Please report the result as a number followed by the unit.

(Q) Determine its reported viscosity: OC[C@H]1O[C@@](CO)(O[C@H]2O[C@H](CO)[C@@H](O)[C@H](O)[C@H]2O)[C@@H](O)[C@@H]1O [D-sucrose] + O
(A) 2.978 ± 0.52 mPa·s

(Q) Determine its reported viscosity: O=C[C@H](O)[C@@H](O)[C@H](O)[C@H](O)CO [D-glucose] + O
(A) 2.908 ± 0.31 mPa·s

(Q) Determine its reported viscosity: O=C(CO)[C@@H](O)[C@H](O)[C@H](O)CO [D-fructose] + O
(A) 2.89 ± 0.33 mPa·s

More entries:
(Q) Determine its reported viscosity: O=C[C@H](O)[C@@H](O)[C@@H](O)[C@H](O)CO [(+)-galactose] + O
(A) 2.779 ± 0.31 mPa·s

---

# viscosity per record follows
Experiment: wn = mass fraction of the nth substance listed
Details: 278.15 K; 101 kPa; Liquid; controlled-strain rheometer (ARES-RFS, TA Instruments); w1 = 0.4
Your answer is read as mPa·s, so omit the unit and give the number.

(Q) Determine its reported viscosity: OC[C@H]1O[C@@](CO)(O[C@H]2O[C@H](CO)[C@@H](O)[C@H](O)[C@H]2O)[C@@H](O)[C@@H]1O [D-sucrose] + O
(A) 14.22

(Q) Determine its reported viscosity: O=C[C@H](O)[C@@H](O)[C@@H](O)[C@H](O)CO [(+)-galactose] + O
(A) 11.17

More entries:
(Q) Determine its reported viscosity: O=C[C@H](O)[C@@H](O)[C@H](O)[C@H](O)CO [D-glucose] + O
(A) 11.19

(Q) Determine its reported viscosity: O=C(CO)[C@@H](O)[C@H](O)[C@H](O)CO [D-fructose] + O
(A) 10.84

---

Assay: wn = mass fraction of the nth substance listed
Details: 273.15 K; 101 kPa; Liquid; controlled-strain rheometer (ARES-RFS, TA Instruments); w1 = 0.4
quantityName: viscosity (mPa·s)
Your answer is read as mPa·s, so omit the unit and give the number.

Here are 3 compounds together with their reported answers.
(Q) Determine its reported viscosity: O=C[C@H](O)[C@@H](O)[C@@H](O)[C@H](O)CO [(+)-galactose] + O
(A) 14.56

(Q) Determine its reported viscosity: O=C[C@H](O)[C@@H](O)[C@H](O)[C@H](O)CO [D-glucose] + O
(A) 15.28

(Q) Determine its reported viscosity: O=C(CO)[C@@H](O)[C@H](O)[C@H](O)CO [D-fructose] + O
(A) 14.02

Switching to the query record.
(Q) Determine its reported viscosity: OC[C@H]1O[C@@](CO)(O[C@H]2O[C@H](CO)[C@@H](O)[C@H](O)[C@H]2O)[C@@H](O)[C@@H]1O [D-sucrose] + O
(A) 19.81

---

Assay: wn = mass fraction of the nth substance listed
Details: 273.15 K; 101 kPa; Liquid; controlled-strain rheometer (ARES-RFS, TA Instruments); w1 = 0.05
quantityName: viscosity (mPa·s)
Your answer is read as mPa·s, so omit the unit and give the number.

Here are 3 compounds together with their reported answers.
(Q) Determine its reported viscosity: OC[C@H]1O[C@@](CO)(O[C@H]2O[C@H](CO)[C@@H](O)[C@H](O)[C@H]2O)[C@@H](O)[C@@H]1O [D-sucrose] + O
(A) 2.45

(Q) Determine its reported viscosity: O=C(CO)[C@@H](O)[C@H](O)[C@H](O)CO [D-fructose] + O
(A) 2.345

(Q) Determine its reported viscosity: O=C[C@H](O)[C@@H](O)[C@H](O)[C@H](O)CO [D-glucose] + O
(A) 2.39

Switching to the query record.
(Q) Determine its reported viscosity: O=C[C@H](O)[C@@H](O)[C@@H](O)[C@H](O)CO [(+)-galactose] + O
(A) 2.42
